Test: Cytotoxicity against Homo sapiens (human) MT4 cells after 5 days by MTT assay
Assay type: cell-based
quantity: CC50 at 120 h

>  <smiles_structure>
Cc1ccc(-c2cc(-c3ccccc3O)nc(N)n2)cc1

>  <value_reported>
> 128 µM

$$$$
>  <smiles_structure>
Nc1nc(-c2cccc(Cl)c2)cc(-c2ccccc2O)n1

>  <value_reported>
> 125 µM

$$$$
>  <smiles_structure>
Nc1nc(-c2ccc(Cl)cc2)cc(-c2ccccc2O)n1

>  <value_reported>
> 74.7 µM

$$$$
>  <smiles_structure>
COc1ccc(-c2cc(-c3ccccc3O)nc(N)n2)cc1OC

>  <value_reported>
7.36 µM

$$$$
>  <smiles_structure>
Nc1nc(-c2ccc(F)cc2)cc(-c2ccccc2O)n1

>  <value_reported>
67.5 µM

$$$$
>  <smiles_structure>
Nc1nc(-c2ccco2)cc(-c2ccccc2O)n1

>  <value_reported>
> 125 µM

$$$$
>  <smiles_structure>
Nc1nc(-c2ccccc2)cc(-c2ccccc2O)n1

>  <value_reported>
31.3 µM

$$$$
>  <smiles_structure>
COc1cccc(-c2cc(-c3ccccc3O)nc(N)n2)c1

>  <value_reported>
> 78.3 µM

$$$$
>  <smiles_structure>
Nc1nc(-c2cccs2)cc(-c2ccccc2O)n1

>  <value_reported>
5.3 µM

$$$$
>  <smiles_structure>
COc1ccc(-c2cc(-c3ccccc3O)nc(N)n2)cc1

>  <value_reported>
92.2 µM

$$$$
>  <smiles_structure>
Cc1cccc(-c2cc(-c3ccccc3O)nc(N)n2)c1

>  <value_reported>
13 µM

$$$$

----------
Experiment: Selectivity index, ratio of CC50 for human MT4 cells to EC50 for HIV13B
Format: toxicity, cell-based
Details: read-out: Ratio CC50/EC50
The following molecules are shown together with reported selectivity ratio values.
quantity: selectivity ratio

>  <smiles_structure>
Cc1cccc(-c2cc(-c3ccccc3O)nc(N)n2)c1

>  <value_reported>
4

$$$$
>  <smiles_structure>
Nc1nc(-c2ccccc2)cc(-c2ccccc2O)n1

>  <value_reported>
10

$$$$
